B1: FBXO3 (parent)
chain: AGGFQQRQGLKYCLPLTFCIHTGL

Variants of: B1
protocol summary: protein stability index of a GFP-peptide fusion (GPS, HEK-293T) (PSI 1-6); higher = more stable;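 also: lentivirally expressed fusions sorted by FACS into six bins by GFP to DsRed ratio, PSI derived from sequencing read proportions per bin multiplied by bin number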
condition info: c terminus: a fixed tail appended
Grouping key: protein stability index. Bins: low (below 2), intermediate (2 to below 3), high (3 or more)

{"columns": ["mutant label", "class assignment"],
 "data": [
  ["C13H", "intermediate"],
  ["R7L", "high"],
  ["C13V", "high"],
  ["H21P", "intermediate"],
  ["H21V", "high"],
  ["P15G", "intermediate"],
  ["T17D", "low"],
  ["L24D", "intermediate"],
  ["R7T", "intermediate"],
  ["T17W", "high"],
  ["G3L", "high"],
  ["G2D", "low"],
  ["G9D", "intermediate"],
  ["L14H", "low"],
  ["P15K", "low"],
  ["A1R", "intermediate"],
  ["G9C", "intermediate"],
  ["Q6D", "low"],
  ["G2F", "intermediate"],
  ["L24Y", "intermediate"],
  ["A1D", "intermediate"],
  ["Q8Y", "intermediate"],
  ["Q6L", "high"],
  ["C19E", "high"],
  ["C13T", "high"],
  ["Y12D", "intermediate"],
  ["G23F", "high"],
  ["L24H", "intermediate"],
  ["Q5N", "intermediate"],
  ["I20A", "low"],
  ["R7P", "high"],
  ["L10H", "low"],
  ["Q5R", "intermediate"],
  ["Q6P", "high"],
  ["I20F", "intermediate"],
  ["K11W", "high"],
  ["L24T", "intermediate"],
  ["C19R", "intermediate"],
  ["L24G", "intermediate"],
  ["F18R", "low"],
  ["L16T", "intermediate"],
  ["L16P", "intermediate"],
  ["L14D", "low"],
  ["G23I", "low"],
  ["A1G", "high"],
  ["G2H", "high"],
  ["Q5M", "intermediate"],
  ["Q5P", "low"],
  ["G9Y", "high"],
  ["G3V", "intermediate"],
  ["A1S", "intermediate"],
  ["L16H", "intermediate"],
  ["Y12G", "high"],
  ["T17K", "intermediate"],
  ["T17F", "low"],
  ["K11S", "intermediate"],
  ["I20K", "low"],
  ["T22D", "low"],
  ["L14G", "high"],
  ["A1E", "intermediate"],
  ["L10P", "intermediate"],
  ["T17I", "intermediate"],
  ["Q6N", "high"],
  ["T22H", "intermediate"],
  ["G9V", "intermediate"],
  ["F18H", "low"],
  ["Q8V", "intermediate"],
  ["Q8M", "intermediate"],
  ["L24E", "high"],
  ["G2K", "high"],
  ["I20S", "intermediate"],
  ["H21W", "intermediate"],
  ["G23C", "high"],
  ["L16Q", "low"],
  ["L16A", "intermediate"],
  ["L14T", "low"],
  ["A1L", "intermediate"]
]}
